B1: glmS ribozyme (parent)
chain: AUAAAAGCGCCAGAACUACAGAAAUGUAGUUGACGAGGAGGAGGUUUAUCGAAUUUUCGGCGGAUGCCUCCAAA

Variants of: B1
method-summary: kcat; higher = faster cleavage; RNA array
test-conditions: with glucosamine-6-phosphate
Variants at the floor of the assay were thinned out.
parameter-measured: log10(kcat) (log10 of the value in s⁻¹)
Quick note: numbers are log10 of kcat, with s⁻¹ as the unit.

Consider the variant G32U C71G and give its measured log10(kcat).
-3.97

Then U30A U55C ?
-2.06

Then G43U A53C ?
-4.65

Then U45G C71U ?
-2.07

Then C16A C70A ?
-4.46

Then G66A C67A ?
-2.09

Then U54C C71G ?
-3.08

Then G32A C67U ?
-3.07

Then C16U A64U ?
-4.02

Then A53U C70G ?
-3.82

Then A6G U31C ?
-4.17

Then U31G A52G ?
-3.37

Then G32A U47G ?
-2.94

Then U57C U65G ?
-4.47

Then A14C U46A ?
-3.45

Then G43U U54A U55A C67G C68U ?
-3.79

Then A39G U45G ?
-1.96

Then A36G U55C ?
-5.00

Then A15U U30G ?
-1.22

Then U47A U69G ?
-4.13

Then G13A A15G ?
-3.06

Then G13C A15G ?
-3.65

Then U31A C68A ?
-4.54

Then U31A U57G ?
-4.36

Then G32C U47A ?
-4.36
